Target: T1, Cyno CD33 full length (cynomolgus monkey)
T1 construct: Stably expressed on HEK293F cells by lentiviral transduction; also called Cyno CD33 (on HEK293F cells)
T1 sequence (chain, as listed by the source limits assumed): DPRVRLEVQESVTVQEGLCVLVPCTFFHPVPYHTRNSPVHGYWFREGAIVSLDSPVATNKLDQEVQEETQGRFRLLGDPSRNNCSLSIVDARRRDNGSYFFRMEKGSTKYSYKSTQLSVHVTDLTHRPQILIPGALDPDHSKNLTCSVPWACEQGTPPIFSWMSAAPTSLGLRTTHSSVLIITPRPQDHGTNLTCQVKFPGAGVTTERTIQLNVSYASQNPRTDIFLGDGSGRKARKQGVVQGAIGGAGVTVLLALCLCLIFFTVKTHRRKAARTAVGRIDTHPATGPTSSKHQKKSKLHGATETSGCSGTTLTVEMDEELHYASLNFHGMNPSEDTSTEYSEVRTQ
Assay: flow cytometry on HEK293F cells expressing cyno CD33
Procedure: The purified antibodies were assessed for binding to stably transfected HEK293F cells expressing human CD33 or cyno CD33 (generation described above) along with the parental HEK293F as negative control. […] 30 ul running buffer containing Sytox Green live/dead dye (ThermoFisher) was added to all wells with cells and the plates were read on an iQue IntelliCyt flow cytometer. […] Antibody binding was assessed by the mean fluorescence intensity in the AF647 channel. […]
Entries and their measured mean fluorescence intensity at 0.6 nM mAb follow.
MEASURE NAME: mean fluorescence intensity at 0.6 nM mAb

BINDER	REPORTED MEASUREMENT
C33B914 (antibody, V domains shown, OMNIMouse mAb; HC C33H254, LC C33L120 (same IDs as C33B906); also called C33F552) VH: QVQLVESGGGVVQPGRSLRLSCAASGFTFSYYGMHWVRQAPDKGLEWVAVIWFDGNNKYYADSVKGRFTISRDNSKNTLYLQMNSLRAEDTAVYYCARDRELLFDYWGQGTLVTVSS VL: SYELTQPPSVSVSPGQTASITCSGDELGDMYACWYQQKPGQSPLVVIYQDSKRPSGIPERFSGSNSGNTATLTISGTQAMDEAAYYCQTWDTRIAVFGGGTNLTVLG	22100 MFI
C33B910 (antibody, V domains shown, OMNIMouse mAb; HC C33H250, LC C33L116 (same IDs as C33B902)) VH: EVQLVESGGGLVQPGRSLRLSCAGSGFTFDDYAIHWVRQAPGKGLEWVSGLSWNGGNIGYADSVKGRFTISRDNAKNSLYLQLNSLKTEDTAFYYCAKDSPYGDYFDYWGQGTLVTVSS VL: DIQMTQSPSSEWASVGDRVTITCRASQGISSWLAWYQQKPGKAPKLLIYGASSWQSGVPSRFSGSGSGTDFTLTISSLQPEDFATYYCQQDNSFPYTFGQGTKLEIKR	117 MFI
C33B909 (antibody, V domains shown, OMNIMouse mAb; HC C33H249, LC C33L115 (same IDs as C33B901); the campaign was cloned into both IgG1 and IgG4 PAA) VH: EVQLVESGGGLVQPGRSLRLSCVASGFTFDDYAIHWVRQAPGKGLEWVSGLSWNGGNIGYADSVKGRFTISRDNAKNSLYLQMNSLKTEDTAFYYCTKDTPYGDYFDYWGQGTLVTVSS VL: DIQMTQSPSSVWASVGDRVTITCRASQGISSWLAWYQQQPGKAPNLLIYRSSSLQSGVPSRFSGSGSGTDFTLTISSLQPEDFATYYCQQDNSFPYTFGQGTKLEIKR	116 MFI
